- TARGET SYSTEM: Mitogen-activated protein kinase 1 (Homo sapiens, UniProt P28482)
- Sequence (P28482 whole entry): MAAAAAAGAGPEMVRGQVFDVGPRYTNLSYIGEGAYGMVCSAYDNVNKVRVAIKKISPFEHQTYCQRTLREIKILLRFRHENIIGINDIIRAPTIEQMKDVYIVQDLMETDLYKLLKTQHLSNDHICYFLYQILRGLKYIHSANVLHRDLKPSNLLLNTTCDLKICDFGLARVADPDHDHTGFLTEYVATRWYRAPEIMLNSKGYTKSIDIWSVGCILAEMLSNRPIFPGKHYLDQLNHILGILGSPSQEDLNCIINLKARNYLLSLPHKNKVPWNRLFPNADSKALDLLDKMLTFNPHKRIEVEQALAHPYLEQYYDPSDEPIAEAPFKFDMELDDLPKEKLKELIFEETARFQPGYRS
- TEST PROTOCOL: Binding affinity to ATP-binding site of ERK2 (unknown origin) assessed as reduction in signal intensity in absence of competitor by 19F NMR spectroscopy
- Design: concentration or dose not given beside the values
READOUT: Activity (%)
Respond with the bare value in %.

CC(C)(C)OC(=O)N[C@H]1CCN(c2ncccc2[N+](=O)[O-])C1 2
Fc1cccc(-c2nnc3ccc(Br)cn23)c1 49

Inquiry: What value of Activity has been reported for the following compound? O=C(O)c1ccc2nc(-c3ccccc3F)nn2c1
Reply text: 35

Inquiry: Do the same for CC(C)(C)OC(=O)N1CCC(CN)(Cc2ccc(C(F)(F)F)cc2)CC1 please
Reply text: 0

Inquiry: Consider next the compound FC(F)(F)c1cnn2cc(Br)cnc12 in the same way.
Reply text: 22

Inquiry: Same again, this time with Fc1ccc2[nH]cc(C3CCOCC3)c2c1
Reply text: 16

Inquiry: And for Nc1ccc2nc(-c3ccc(F)cc3)nn2c1 ?
Reply text: 26

====

- TARGET SYSTEM: Mitogen-activated protein kinase 1 (Homo sapiens, UniProt P28482)
- TEST PROTOCOL: Binding affinity to ATP-binding site of ERK2 (unknown origin) assessed as reduction in signal intensity in absence of competitor by 19F NMR spectroscopy
- Parameters: concentration or dose not given beside the values
Reported Activity by item:
Write the value in % as a bare number.

The examples below pair each entry with its known result.
COMPOUND	READOUT	READOUT VALUE
O=C1c2ccc(F)cc2CN1[C@H]1CCCNC1	Activity	67
Fc1ccc2c(CC3CCOCC3)c[nH]c2c1	Activity	24
COCCCNc1ccc(F)cc1[N+](=O)[O-]	Activity	15
CC(C)(C)OC(=O)N1CCC2(CC1)C(=O)Nc1ccc(F)cc12	Activity	45
CC(C)(C)OC(=O)N1CCC(CN)(Cc2cccc(C(F)(F)F)c2)CC1	Activity	9
FC(F)(F)c1ccnc(NC2CCNCC2)c1	Activity	9

Inquiry: # Activity lookup, item Nc1cnc2c(C(F)(F)F)cnn2c1
Reply text: -12

Inquiry: And what about the compound NC1CCN(c2cccc(F)c2[N+](=O)[O-])CC1 ?
Reply text: 10

Inquiry: Proceed to Fc1ccc2[nH]cc(C3CCCNC3)c2c1 (configuration not stated)
Reply text: 20

Inquiry: Cool, now Nc1c(F)cccc1N1CCCCC1
Reply text: 17

Inquiry: Next up: Fc1cccc2c1CC1(CCOCC1)CN2
Reply text: 20

Inquiry: Would you kindly repeat that for CC(C)(C)OC(=O)N1CCC(Cc2cccc(C(F)(F)F)c2)(C(=O)O)CC1 ?
Reply text: 30

Inquiry: Same again, this time with N[C@H]1CC[C@H](N2Cc3c(F)cccc3C2=O)CC1
Reply text: 9

Inquiry: Try this compound too: Fc1ccc2[nH]cc(CC3CCOCC3)c2c1
Reply text: 30

Inquiry: Now the same for O=C1c2ccc(F)cc2CN1C1CCNCC1
Reply text: 7

Inquiry: // same read-out, input: Nc1cnc(Nc2ccc(C(F)(F)F)cc2)nc1
Reply text: 26

Inquiry: How about O=C1c2cccc(F)c2CN1[C@H]1CCCNC1 ?
Reply text: 22

====

Recorded measurements of Activity, one per entry
- TARGET SYSTEM: Mitogen-activated protein kinase 1 (Homo sapiens, UniProt P28482)
- TEST PROTOCOL: Binding affinity to ATP-binding site of ERK2 (unknown origin) assessed as reduction in signal intensity in presence of FR180204 at 1 mM by competitive surface plasmon resonance method
- Set-up: scale not given: the % may be the effect or the level left

# count of solved cases: 5
Nc1c(F)cccc1N1CCCCC1 10%
Nc1cnc2c(C(F)(F)F)cnn2c1 23%
Fc1ccc2c(CC3CCOCC3)c[nH]c2c1 25%
N[C@H]1CC[C@H](N2Cc3c(F)cccc3C2=O)CC1 15%
Fc1cccc(-c2nnc3ccc(Br)cn23)c1 12%

Inquiry: Hello, I am looking for reported Activity with Mitogen-activated protein kinase 1 (Homo sapiens, UniProt P28482) for Nc1cnc(Nc2ccc(C(F)(F)F)cc2)nc1 . Could you help?
Reply text: 14%

Inquiry: Please give the result for O=C(O)c1ccc2nc(-c3ccccc3F)nn2c1 too.
Reply text: 14%

Inquiry: For O=C1c2cccc(F)c2CN1[C@H]1CCCNC1 then?
Reply text: 31%

Inquiry: Can you check FC(F)(F)c1ccnc(NC2CCNCC2)c1 next?
Reply text: 20%

====

Items are presented alongside their recorded pKd.
- TARGET SYSTEM: Mitogen-activated protein kinase 1 (Homo sapiens)
- TEST PROTOCOL: Binding affinity to ATP-binding site of ERK2 (unknown origin) by surface plasmon resonance method
pKd: −log10 of the molar value.

Examples from the recorded data:
COMPOUND	TARGET SYSTEM	READOUT VALUE
N[C@H]1CC[C@H](N2Cc3c(F)cccc3C2=O)CC1	Mitogen-activated protein kinase 1 (Homo sapiens)	3.31
Fc1ccc2[nH]cc(C3CCOCC3)c2c1	Mitogen-activated protein kinase 1 (Homo sapiens)	< 3.00
NC1CCN(c2cccc(F)c2[N+](=O)[O-])CC1	Mitogen-activated protein kinase 1 (Homo sapiens)	< 3.00

Inquiry: Reported pKd for Mitogen-activated protein kinase 1 (Homo sapiens), given O=C1c2ccc(F)cc2CN1C1CCNCC1 ?
Reply text: < 3.00

Inquiry: Entry to check: CC(C)(C)OC(=O)N1CCC(Cc2cccc(C(F)(F)F)c2)(C(=O)O)CC1
Reply text: < 3.00

====

- TARGET SYSTEM: Mitogen-activated protein kinase 1 (Homo sapiens, UniProt P28482)
- TEST PROTOCOL: Binding affinity to ATP-binding site of ERK2 (unknown origin) by isothermal titration calorimetry
READOUT: pKd
Here pKd is given on a logarithmic scale as minus log10 of the concentration in mol/L.

Inquiry: Any idea what its pKd is? The molecule is Fc1ccc2[nH]cc(CC3CCOCC3)c2c1
Reply text: 3.39

====

- TARGET SYSTEM: Mitogen-activated protein kinase 1 (Homo sapiens)
- TEST PROTOCOL: Binding affinity to ATP-binding site of ERK2 (unknown origin) assessed as reduction in signal intensity by 19F NMR spectroscopy
- Design: concentration or dose not given beside the values
Calls of active or inactive are those of the source. The calls are words filed in the database; no cut-off is given here.
READOUT: Activity

These solved cases illustrate the format of a correct answer.
COMPOUND	READOUT	READOUT VALUE
COCCCNc1ccc(F)cc1[N+](=O)[O-]	Activity	29%
NCc1cn(Cc2ccccc2C(F)(F)F)cn1	Activity	inactive
N[C@H]1CC[C@H](N2Cc3cc(F)ccc3C2=O)CC1	Activity	inactive
Fc1ccc2[nH]cc(C3CCCNC3)c2c1 (centres undefined)	Activity	10%
Nc1c(F)cccc1N1CCCCC1	Activity	31%
O=C(O)c1ccc2nc(-c3ccccc3F)nn2c1	Activity	47%

Could you now look at the following compound, please?
Inquiry: Tell me the measured Activity of O=C1c2cccc(F)c2CN1[C@H]1CCCNC1 , please.
Reply text: 32%

====

Entries and their measured Activity follow.
- TARGET SYSTEM: Mitogen-activated protein kinase 1 (Homo sapiens, UniProt P28482)
- TEST PROTOCOL: Binding affinity to ATP-binding site of ERK2 (unknown origin) assessed as reduction in signal intensity in presence of L100919 by competitive 19F NMR spectroscopy
- Design: concentration or dose not given beside the values
API: value field is a number in %; no unit string.

Below, 2 compounds whose answers are already recorded.
COMPOUND	TARGET SYSTEM	Activity [%]
Fc1ccc2[nH]cc(C3CCCNC3)c2c1 (stereo not drawn)	Mitogen-activated protein kinase 1 (Homo sapiens, UniProt P28482)	9
Fc1ccc2[nH]cc(CC3CCOCC3)c2c1	Mitogen-activated protein kinase 1 (Homo sapiens, UniProt P28482)	20

Could you now consider this next compound?
Inquiry: Request the reported Activity associated with O=C1c2ccc(F)cc2CN1[C@H]1CCCNC1
Reply text: 8

====

- TARGET SYSTEM: Mitogen-activated protein kinase 1 (Homo sapiens)
- TEST PROTOCOL: Binding affinity to ATP-binding site of ERK2 (unknown origin) assessed as reduction in signal intensity by 19F NMR spectroscopy
- Parameters: concentration or dose not given beside the values
compounds and their reported Activity

As a guide, the following entries are already answered.
CC(C)(C)OC(=O)N1CCC(Cc2cccc(C(F)(F)F)c2)(C(=O)O)CC1 26%
Nc1cnc2c(C(F)(F)F)cnn2c1 33%
O=C1c2ccc(F)cc2CN1[C@H]1CCCNC1 66%
CC(C)(C)OC(=O)N[C@H]1CCN(c2ncccc2[N+](=O)[O-])C1 20%
Fc1cccc(-c2nnc3ccc(Br)cn23)c1 54%

Next up:
Inquiry: What does the record list as Activity for CC(C)(C)OC(=O)N1CCC2(CC1)C(=O)Nc1ccc(F)cc12 ?
Reply text: 39%
